Catalogue of compounds with associated Emax
biological target: human mGlu5a receptor (Homo sapiens (Human)); test: Intracellular Ca2+ mobilization assay (mGlu5 PAM); assay type: cell-based; conditions: maximal response in % of the maximal stimulatory effect obtained with saturating concentrations of L-glutamate; read-out: Eff. (%)
// units = %; emit number, no label

// solved cases for Emax follow
compound	quantity.unit	Emax
CN1C(=O)N(c2ccc(C#Cc3ccccc3)cn2)[C@@H]2CCC[C@@H]21 (racemic)	%	42
CO[C@H]1C(=O)N(c2ccc(C#Cc3ccccc3)cn2)CC1(C)C (single isomer, unassigned)	%	86
O=C1CC2(CCCC2)CN1c1ncc(C#Cc2ccccc2)cn1	%	84
CC1(C)CC(=O)N(c2ncc(C#Cc3ccccc3)cc2F)C1	%	128
CC1CN(c2ncc(C#Cc3cc(F)ccc3F)cn2)C(=O)OC1(C)C (racemic)	%	64
COC1C(=O)N(c2ncc(C#Cc3ccccc3)cn2)CC1(C)C (racemic)	%	94
CO[C@H]1C(=O)N(c2ncc(C#Cc3ccccc3)cn2)CC1(C)C (single isomer, unassigned)	%	90
CC1CN(c2ncc(C#Cc3ccccc3)cn2)C(=O)OC1(C)C (racemic)	%	93

Summary for this compound, `CN1C(=O)N(c2ncc(C#Cc3ccc(F)cc3)cn2)CC1(C)C` : Emax is 44

Summary for this compound, CN1C(=O)N(c2ccc(C#Cc3ccccc3)nn2)[C@@H]2CCC[C@@H]21 (racemic) : Emax is 105

Summary for this compound, CC1N(c2ccc(C#Cc3ccccc3)cn2)C(=O)OC1(C)C (racemic) : Emax is 61

Summary for this compound, `CC1(C)CCC(=O)N(c2ccc(C#Cc3ccccc3)cn2)C1` : Emax is 139

Summary for this compound, `CC1(C)CN(c2ccc(C#Cc3cc(F)ccc3F)cn2)C(=O)O1` : Emax is 38

Summary for this compound, `CC1(C)CCC(=O)N(c2ccc(C#Cc3cccc(F)c3)cn2)C1` : Emax is 100

Summary for this compound, COC[C@@H]1CN(c2ccc(C#Cc3ccccc3)cn2)C(=O)O1 (single isomer, unassigned) : Emax is 98

Summary for this compound, `CC1(C)CN(c2ccc(C#Cc3cncc(F)c3)cn2)C(=O)O1` : Emax is 45

Summary for this compound, `O=C1CS(=O)(=O)CCN1c1ccc(C#Cc2ccccc2)cn1` : Emax is 82

Summary for this compound, `CC1(C)CCN(c2ncc(C#Cc3cc(F)ccc3F)cn2)C(=O)C1` : Emax is 49

Summary for this compound, O=C1O[C@H]2CCCC[C@H]2N1c1ccc(C#Cc2ccccc2)cn1 (racemic) : Emax is 109

====

target: human mGlu5a receptor (Homo sapiens (Human), UniProt P41594); assay: Intracellular Ca2+ mobilization assay (mGlu5 PAM); type: cell-based; conditions: HEK-293 cells stably transfected with human mGlu5a; L-glutamate added at EC20 after pre-incubation with test compound; read-out: EC50 (nM) mGlu5PAM
Sequence (P41594 other isoform, or with tags, fused parts or gaps): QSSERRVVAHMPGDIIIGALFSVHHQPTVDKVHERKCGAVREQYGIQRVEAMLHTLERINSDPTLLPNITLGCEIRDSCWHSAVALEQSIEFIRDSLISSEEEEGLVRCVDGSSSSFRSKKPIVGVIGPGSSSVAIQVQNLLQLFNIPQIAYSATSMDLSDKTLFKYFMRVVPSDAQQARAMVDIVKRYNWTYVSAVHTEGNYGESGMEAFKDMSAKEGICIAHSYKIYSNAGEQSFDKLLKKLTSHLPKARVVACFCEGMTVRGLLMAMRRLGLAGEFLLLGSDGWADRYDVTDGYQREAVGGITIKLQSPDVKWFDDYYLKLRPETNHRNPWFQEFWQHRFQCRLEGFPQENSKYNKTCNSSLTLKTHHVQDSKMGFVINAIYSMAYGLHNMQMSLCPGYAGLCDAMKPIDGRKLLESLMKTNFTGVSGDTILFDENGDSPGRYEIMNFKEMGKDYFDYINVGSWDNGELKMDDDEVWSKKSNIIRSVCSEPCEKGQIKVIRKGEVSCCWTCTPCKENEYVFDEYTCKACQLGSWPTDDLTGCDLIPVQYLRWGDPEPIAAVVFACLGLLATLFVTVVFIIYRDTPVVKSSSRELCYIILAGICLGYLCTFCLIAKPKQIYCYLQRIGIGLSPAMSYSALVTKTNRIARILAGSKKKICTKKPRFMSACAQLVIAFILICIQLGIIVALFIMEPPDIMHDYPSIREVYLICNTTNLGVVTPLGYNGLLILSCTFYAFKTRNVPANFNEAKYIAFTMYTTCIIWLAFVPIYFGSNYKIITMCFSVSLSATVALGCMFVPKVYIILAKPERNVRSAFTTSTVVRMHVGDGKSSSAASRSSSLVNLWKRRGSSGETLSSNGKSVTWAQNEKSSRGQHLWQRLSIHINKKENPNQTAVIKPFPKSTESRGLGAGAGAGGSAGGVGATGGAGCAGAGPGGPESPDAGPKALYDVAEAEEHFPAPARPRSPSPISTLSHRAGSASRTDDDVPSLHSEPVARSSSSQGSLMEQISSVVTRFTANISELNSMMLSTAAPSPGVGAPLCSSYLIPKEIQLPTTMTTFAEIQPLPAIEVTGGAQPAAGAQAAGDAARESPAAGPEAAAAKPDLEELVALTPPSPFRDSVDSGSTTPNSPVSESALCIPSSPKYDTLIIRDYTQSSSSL
measurement.kind: EC50 (nM)
// units = nM; emit number, no label

molecule	readout.value
CN1C(=O)N(c2ccc(C#Cc3cccc(Cl)c3)nn2)CC1(C)C [Example 155]	73
O=C1[C@H]2CCC[C@H]2N1c1ccc(C#Cc2ccccc2)cn1 (racemic) [Example 46]	26
CC1(C)CCN(c2ccc(C#Cc3cccc(F)c3)cn2)C(=O)C1 [Example 88]	19
CN1C(=O)N(c2ncc(C#Cc3ccc(F)cc3)cn2)CC1(C)C [Example 125]	13
CC1CN(c2ccc(C#Cc3ccccc3)cn2)C(=O)CO1 (racemic) [Example 171]	88

Summary for this molecule, CN1C(=O)N(c2ncc(C#Cc3cc(F)ccc3F)cn2)CC1(C)C [Example 124] : EC50 is 7

Summary for this molecule, CO[C@H]1C(=O)N(c2ncc(C#Cc3cccc(F)c3)cn2)CC1(C)C (single isomer, unassigned) [Example 132] : EC50 is 21

Summary for this molecule, CO[C@H]1C(=O)N(c2ncc(C#Cc3ccccc3)cn2)CC1(C)C (single isomer, unassigned) [Example 129] : EC50 is 18

====

Catalogue of compounds with associated Emax
target: UniProt P41594; test: Intracellular Ca2+ mobilization assay (mGlu5 PAM); type: cell-based; settings: maximal response in % of the maximal stimulatory effect obtained with saturating concentrations of L-glutamate; read-out: Eff. (%)
// units = %; emit number, no label

// solved cases for Emax follow
compound	quantity.unit	Emax
CN1C(=O)N(c2ccc(C#Cc3ccccc3)cn2)CC12CC2 [Example 96]	%	98
O=C1OC2(CCCCC2)CN1c1ccc(C#Cc2ccccc2)cn1 [Example 12]	%	80
CN1C(=O)N(c2ccc(C#Cc3ccccc3)cn2)CC12CCCC2 [Example 44]	%	92

Summary for this compound, O=C1N(c2ccc(C#Cc3ccccc3)cn2)CC2CCCCN12 (racemic) [Example 58] : Emax is 43

Summary for this compound, CN1C(=O)N(c2ccc(C#Cc3cccc(F)c3)cn2)CC1(C)C [Example 53] : Emax is 103

Summary for this compound, CN1C(=O)N(c2ncc(C#Cc3ccc(F)cc3)cc2F)CC1(C)C [Example 110] : Emax is 117

====

biological target: human mGlu5a receptor (Homo sapiens (Human)); assay: Intracellular Ca2+ mobilization assay (mGlu5 PAM); assay type: cell-based; details: maximal response in % of the maximal stimulatory effect obtained with saturating concentrations of L-glutamate; read-out: Eff. (%)
measurement.kind: Emax
The reply should read as a number followed by its unit.

molecule	Emax
Cc1cccc(C#Cc2ccc(N3CC(C)(C)N(C)C3=O)nc2)c1	56%
CC1(C)CCCN(c2ccc(C#Cc3ccccc3)cn2)C(=O)O1	104%
CC1(C)CC(=O)N(c2ccc(C#Cc3cncc(Cl)c3)cn2)C1	98%
CC1(C)CCN(c2ccc(C#Cc3cncc(Cl)c3)cn2)C(=O)C1	90%
CC1(C)OC(=O)N(c2ccc(C#Cc3ccccc3)cn2)C1(C)C	31%
Cc1cccc(C#Cc2ccc(N3CCC(C)(C)OC3=O)nc2)c1	72%
O=C1N(c2ccc(C#Cc3cccc(F)c3)cn2)CC2CCCCN12 (racemic)	41%
CN1CC(C)(C)CN(c2ccc(C#Cc3ccccc3)cn2)C1=O	131%

Summary for this molecule, `CC1(C)CCN(c2ccc(C#Cc3cccc(F)c3)cn2)C(=O)C1` : Emax is 110%

====

molecular target: human mGlu5a receptor (Homo sapiens (Human), UniProt P41594); experiment: Intracellular Ca2+ mobilization assay (mGlu5 PAM); format: cell-based; conditions: maximal response in % of the maximal stimulatory effect obtained with saturating concentrations of L-glutamate; read-out: Eff. (%)
measurement.kind: Emax
The reply should read as a number followed by its unit.

// solved cases for Emax follow
compound	target.system	readout.value
CN1C(=O)N(c2ccc(C#Cc3ccc(F)cc3)cn2)CC12CC2 [Example 112]	human mGlu5a receptor (Homo sapiens (Human), UniProt P41594)	89%
CCN1C(=O)N(c2ccc(C#Cc3ccccc3)cn2)CC1(C)C [Example 17]	human mGlu5a receptor (Homo sapiens (Human), UniProt P41594)	103%
CCN1C(=O)N(c2ccc(C#Cc3ccccc3)cn2)C2CCCCC21 (stereo not drawn) [Example 99]	human mGlu5a receptor (Homo sapiens (Human), UniProt P41594)	90%
COCC1CN(c2ccc(C#Cc3ccccc3)cn2)C(=O)O1 (racemic) [Example 2]	human mGlu5a receptor (Homo sapiens (Human), UniProt P41594)	34%
CN1C(=O)N(c2cnc(C#Cc3ccccc3)cn2)CCC1(C)C [Example 165]	human mGlu5a receptor (Homo sapiens (Human), UniProt P41594)	55%
CN1C(=O)N(c2ccc(C#Cc3ccccc3)cn2)C2CCCCC21 (stereo not drawn) [Example 84]	human mGlu5a receptor (Homo sapiens (Human), UniProt P41594)	64%
CC1(C)CCN(c2ccc(C#Cc3cccc(Cl)c3)cn2)C(=O)O1 [Example 77]	human mGlu5a receptor (Homo sapiens (Human), UniProt P41594)	72%
CC1(C)CCN(c2ccc(C#Cc3cncc(Cl)c3)cn2)C(=O)O1 [Example 75]	human mGlu5a receptor (Homo sapiens (Human), UniProt P41594)	87%

Okay, next one:
Given the compound CN1C(=O)N(c2ccc(C#Cc3cccc(F)c3)cn2)CC12CC2 [Example 113] and test system human mGlu5a receptor (Homo sapiens (Human), UniProt P41594), the measured Emax is 75%

====

Catalogue of molecules with associated EC50
molecular target: human mGlu5a receptor (Homo sapiens (Human)); assay: Intracellular Ca2+ mobilization assay (mGlu5 PAM); assay type: cell-based; conditions: HEK-293 cells stably transfected with human mGlu5a; L-glutamate added at EC20 after pre-incubation with test compound; read-out: EC50 (nM) mGlu5PAM
// units = nM; emit number, no label

// solved cases for EC50 follow
molecule	measurement.kind	readout.value
CN1C(=O)N(c2ccc(C#Cc3ccccc3)cn2)CC1(C)C	EC50	35
CN1C(=O)N(c2ccc(C#Cc3ccc(F)cc3)cn2)CCC1(C)C	EC50	49
CC1(C)CCN(c2ccc(C#Cc3cncc(Cl)c3)cn2)C(=O)C1	EC50	66
O=C1OC2(CCCC2)CN1c1ccc(C#Cc2ccccc2)cn1	EC50	39
CN1C(=O)N(c2cnc(C#Cc3ccccc3)cn2)CC1(C)C	EC50	24

Summary for this molecule, `CC1(C)CCN(c2ccc(C#Cc3cccc(Cl)c3)cn2)C(=O)O1` : EC50 is 12

Summary for this molecule, `CN1C(=O)N(c2ncc(C#Cc3cccc(F)c3)cn2)CC1(C)C` : EC50 is 18

Summary for this molecule, `CC1(C)CCN(c2ncc(C#Cc3cccc(F)c3)cn2)C(=O)C1` : EC50 is 35

Summary for this molecule, `CC1(C)CC(=O)N(c2ncc(C#Cc3ccccc3)cc2F)C1` : EC50 is 30

Summary for this molecule, `O=C1OC2(CCCCC2)CN1c1ccc(C#Cc2ccccc2)cn1` : EC50 is 67
